Tested on: HSkMC
protocol_details: cytotoxicity call (relative viability < 0.9)
study_conditions: 10 µM
About 1,500 (3.8%) of roughly 39,000 compounds were called active. What follows is part of a selection rich in actives, with near analogues and random picks from the rest.
observation_type: cytotoxicity call

> print(dat)
                                        mol  value.measured
1  C[C@H](CO)N1C[C@H](C)[C@@H](CN(C)Cc2ccc(Oc3ccccc3)cc2)Oc2ccc(NC(=O)Nc3cccc4ccccc34)cc2C1=O        inactive
2         CC(C)Cn1c(=O)n(C)c(=O)c2[nH]cnc21        inactive
3                   CCOc1ccc(S(N)(=O)=O)cc1        inactive
4  C[C@@H]1CN([C@@H](C)CO)C(=O)c2cccc(NC(=O)c3ccc(-c4nccs4)cc3)c2O[C@H]1CN(C)Cc1ccc(Oc2ccccc2)cc1        inactive
5  C[C@@H]1CCCCO[C@H](CN(C)S(C)(=O)=O)[C@@H](C)CN([C@@H](C)CO)C(=O)c2cc(NS(=O)(=O)c3ccccc3)ccc2O1        inactive

---

Test system: HSkMC
protocol_details: cytotoxicity call (relative viability < 0.9)
study_conditions: 10 µM
Among all 39,000 compounds or so, about 1,500 (3.8%) were called active. What follows is part of a selection rich in actives, with near analogues and random picks from the rest.
observation_type: cytotoxicity call

> print(dat)
                                    molecule  value.measured
 1  C[C@H](CO)N1C[C@H](C)[C@@H](CN(C)C(=O)C2CCCCC2)OCCCC[C@H](C)Oc2ccc(NS(=O)(=O)c3ccc(Cl)cc3)cc2C1=O        inactive
 2  Cc1ccc2c(c1)/C(=C/c1ccncc1)c1cc3ccccc3nc1-2        inactive
 3  Cc1noc(C)c1S(=O)(=O)Nc1ccc2c(c1)C(=O)N([C@@H](C)CO)C[C@H](C)[C@@H](CN(C)Cc1ccc(Oc3ccccc3)cc1)O2        inactive
 4  O=C(NCC1CC1)c1cc2c(c(-c3cccc(-c4ccccc4F)c3)n1)[C@@H](CCO)N(C(=O)CC1CC1)C2        inactive
 5                   COc1ccc(C(=O)O)c(O)c1OC        inactive
 6  O=C(NCC(F)(F)F)c1cc2c(c(-c3cccc(-c4ccccc4F)c3)n1)[C@@H](CCO)N(C(=O)CC1CC1)C2          active
 7  COc1ccc(C#Cc2cccc(-c3nc(C(=O)N4CCN(Cc5ccccc5)CC4)cc4c3[C@@H](CCO)N(S(=O)C(C)(C)C)C4)c2)cc1OC (some centres not stated)        inactive
 8  CC(C)(C)S(=O)N1Cc2cc(C(=O)N3CCN(Cc4ccccc4)CC3)nc(-c3cccc(-c4cc5ccccc5o4)c3)c2[C@H]1CCO (some centres not stated)          active
 9  C[C@@H]1CN([C@@H](C)CO)C(=O)c2cc(NS(=O)(=O)c3ccc(Cl)cc3)ccc2O[C@@H](C)CCCCO[C@H]1CN(C)C(=O)Cc1ccccc1        inactive
10  CC(=O)N1Cc2cc(C(=O)NCc3cccc(F)c3)nc(-c3cccc(C4=CCCCC4)c3)c2[C@H]1CCO          active
11  O=C1O[C@@H](c2ccccc2)[C@@H](c2ccccc2)N2[C@@H](c3ccc(O)cc3)[C@]3(C(=O)Nc4ccccc43)[C@@H](C(=O)N3CCCCCCC3)[C@H]12        inactive
12  COc1ccc(S(=O)(=O)Nc2ccc3c(c2)C(=O)N([C@@H](C)CO)C[C@H](C)[C@H](CN(C)S(=O)(=O)c2cn(C)cn2)OCCCC[C@@H](C)O3)cc1        inactive
13  C[C@@H]1CCCCO[C@@H](CN(C)C(=O)C2CCCCC2)[C@@H](C)CN([C@H](C)CO)C(=O)c2cc(NS(=O)(=O)c3ccc(Cl)cc3)ccc2O1          active
14  O=C1O[C@H](c2ccccc2)[C@H](c2ccccc2)N2[C@H]1[C@@H](C(=O)N1CCCCCCC1)[C@]1(C(=O)Nc3ccccc31)[C@H]2c1ccc(O)cc1          active
15  COC1=C(N)C(=O)c2nc(-c3nc(C(=O)O)c(C)c(-c4ccc(OC)c(OC)c4O)c3N)ccc2C1=O          active
16  C[C@@H]1CCCCO[C@H](CN(C)S(=O)(=O)c2cccs2)[C@@H](C)CN([C@H](C)CO)C(=O)c2cc(NC(=O)C3CCCCC3)ccc2O1        inactive
17       Oc1c(Cl)cc(Cl)cc1Sc1cc(Cl)cc(Cl)c1O          active
18  CCC(=O)N1Cc2cc(C(=O)Nc3nccs3)nc(-c3cccc(-c4ccccc4OC)c3)c2[C@H]1CCO          active
19  CC(C)NC(=O)Nc1ccc2c(c1)C(=O)N([C@@H](C)CO)C[C@@H](C)[C@@H](CN(C)C(=O)Nc1ccc(C(F)(F)F)cc1)OCCCC[C@@H](C)O2        inactive
20  O=C1O[C@@H](c2ccccc2)[C@@H](c2ccccc2)N2[C@@H](c3ccc(OCCO)cc3)[C@]3(C(=O)Nc4ccccc43)[C@@H](C(=O)N3CCCCCCC3)[C@H]12        inactive
21  C[C@@H]1CN([C@@H](C)CO)C(=O)c2cc(-c3cccc(C(=O)N(C)C)c3)cnc2O[C@@H]1CN(C)S(=O)(=O)c1cccc(F)c1        inactive
22  C[C@@H]1CN([C@@H](C)CO)C(=O)c2cc(NS(=O)(=O)c3cccs3)ccc2O[C@@H](C)CCCCO[C@H]1CN(C)Cc1ccccc1        inactive

---

Tested on: HSkMC (human skeletal muscle cells)
protocol_details: cytotoxicity call (relative viability < 0.9)
study_conditions: 10 µM
The campaign covered roughly 39,000 compounds. About 1,500 (3.8%) were called active. The sample as a whole holds a higher share of actives than the screen did.
Outcomes: y (active), n (inactive)

> print(dat)
                                         mol  label
 1  O=C(CCCCCNC(=O)OCCCOc1ccc(C2=N[C@]3(Cc4ccccc4)C(=O)N(Cc4ccccc4)Cc4ccccc4[C@@H]3O2)cc1)NO      n
 2  C[C@H](CO)N1C[C@H](C)[C@@H](CN(C)C(=O)Nc2ccc(C(F)(F)F)cc2)Oc2c(NS(C)(=O)=O)cccc2C1=O      n
 3  C[C@H]1CN([C@@H](C)CO)C(=O)c2cccc(NC(=O)Nc3ccc(C(F)(F)F)cc3)c2O[C@H]1CN(C)C(=O)Nc1ccc(F)cc1      n
 4  C[C@@H]1CN([C@H](C)CO)C(=O)Cc2cc(NC(=O)Nc3ccc4c(c3)OCO4)ccc2O[C@@H]1CN(C)Cc1ccc(C(=O)Nc2ccccc2N)cc1      n
 5  C[C@@H]1CCCCO[C@H](CN(C)Cc2ccncc2)[C@@H](C)CN([C@H](C)CO)C(=O)c2cc(NC(=O)NC3CCCCC3)ccc2O1      n
 6  C[C@@H]1CN([C@@H](C)CO)C(=O)c2cccc(NC(=O)Nc3ccc(C(F)(F)F)cc3)c2O[C@@H]1CN(C)C(=O)Nc1ccc(C(F)(F)F)cc1      y
 7          O=C1c2cccc(O)c2C(=O)c2c(O)cccc21      n
 8  C[C@H](CO)N1C[C@H](C)[C@H](CN(C)C(=O)Nc2ccc(F)cc2)Oc2c(NC(=O)Nc3ccc(C(F)(F)F)cc3)cccc2C1=O      y
 9  C[C@H](CO)N1C[C@H](C)[C@H](CN(C)C(=O)NC2CCCCC2)OCCCC[C@H](C)Oc2ccc(NC(=O)Nc3ccc4c(c3)OCO4)cc2C1=O      n
10  C[C@H]1CN([C@@H](C)CO)C(=O)c2cccc(NC(=O)Nc3ccccc3)c2O[C@@H]1CN(C)C(=O)Nc1ccc(C(F)(F)F)cc1      n
11  O=C1c2c(O)ccc(O)c2C(=O)c2c(NCCNCCO)ccc(NCCNCCO)c21      y
12  COc1ccc(NC(=O)Nc2ccc3c(c2)CC(=O)N([C@@H](C)CO)C[C@@H](C)[C@H](CN(C)Cc2ccc(C(F)(F)F)cc2)O3)cc1      n
13  COc1ccc(CN(C)C[C@@H]2Oc3ccc(NC(=O)Nc4ccc(C(F)(F)F)cc4)cc3CC(=O)N([C@@H](C)CO)C[C@@H]2C)cc1      n
14                       O=C(CCNCCO)c1ccccc1      n
15             O=[N+]([O-])c1ccc(NCCNCCO)cc1      n
16  COc1ccc(NC(=O)Nc2ccc3c(c2)CC(=O)N([C@H](C)CO)C[C@H](C)[C@@H](CN(C)Cc2ccc(C(F)(F)F)cc2)O3)cc1      n
17  C[C@H]1CN([C@@H](C)CO)C(=O)c2cccc(NC(=O)Nc3ccc(C(F)(F)F)cc3)c2O[C@@H]1CN(C)C(=O)Nc1ccc(C(F)(F)F)cc1      y
18  COc1ccc2c3c(n(c2c1)C)[C@H](CO)N(C[C@]13CN(C1)C(=O)CN(C)C)C(=O)CN(C)C      n
19  C[C@@H]1CN([C@H](C)CO)C(=O)c2cccc(NC(=O)Nc3ccc(C(F)(F)F)cc3)c2O[C@@H]1CN(C)C(=O)Nc1ccc(F)cc1      n
20  C[C@@H]1CCCCO[C@@H](CN(C)Cc2ccc(Cl)c(Cl)c2)[C@@H](C)CN([C@H](C)CO)C(=O)c2cc(N(C)C)ccc2O1      n
21            O=C1c2ccccc2C(=O)c2c1ccc(O)c2O      n
22  COc1ccc(NC(=O)Nc2ccc3c(c2)CC(=O)N([C@@H](C)CO)C[C@H](C)[C@@H](CN(C)Cc2ccc(C(F)(F)F)cc2)O3)cc1      n
23  C[C@H](CO)N1C[C@H](C)[C@@H](CN(C)Cc2ccc(C(=O)O)cc2)OCCCC[C@H](C)Oc2ccc(NC(=O)Nc3ccccc3)cc2C1=O      n
24  O=C1c2ccccc2C(=O)c2c(NCCNCCO)ccc(NCCNCCO)c21      y
